Test system: HOP-18 NSCLC
method_notes: NCI tumour cell line growth inhibition, 48 h
measure: TGI

{"columns": ["compound", "target_entity", "result_value"],
 "data": [
  ["CCCCCCCCCCCC(=O)OCC(C[As](=O)(O)O)OC(=O)CCCCCCCCCCC (centres undefined)", "HOP-18 NSCLC", "14.1 µM"],
  ["CCOC(=O)CCC(=O)C1c2cccc(O)c2C(=O)c2c(O)cc(C)cc21 (centres undefined)", "HOP-18 NSCLC", "1.33 µM"],
  ["O=C(CCc1nc(=S)[nH][nH]1)Nc1ccccc1Cl", "HOP-18 NSCLC", "> 100 µM"],
  ["COc1cc2[nH]c3c(c2cc1OC)CCN[C@]31CC[C@]2(CC3c4c(cc(OC)c(O)c42)CCN3C)C[C@H]1OC (some centres undefined)", "HOP-18 NSCLC", "46.7 µM"],
  ["O=C(CC(=O)n1nc(-c2ccccc2)c(N=Nc2ccc(Cl)cc2)c1-c1ccccc1)Nc1ccc(Cl)cc1", "HOP-18 NSCLC", "> 100 µM"],
  ["Nc1nc([O-])c2c(n1)[n+](C1OC(CO)C(O)C1O)cn2CCO (centres undefined)", "HOP-18 NSCLC", "> 100 µM"],
  ["Cc1[nH]c(=O)nc2[nH][nH]c(=O)c12", "HOP-18 NSCLC", "> 100 µM"],
  ["O=C(O)CNS(=O)(=O)c1ccc(NC(=O)c2ccc([N+](=O)[O-])cc2)cc1", "HOP-18 NSCLC", "> 100 µM"],
  ["C=C(C)[C@H]1Cc2c(ccc3c2O[C@@H]2COc4cc(OC)c(OC)cc4[C@@H]2C3=O)O1", "HOP-18 NSCLC", "> 89.7 µM"],
  ["O=C(Nc1cc(Cl)c(Cl)cc1Cl)C(=O)C1C(=O)NC(=S)NC1=O", "HOP-18 NSCLC", "> 100 µM"],
  ["CN(C)CC1CCCC(CN(C)C)C1OC(=O)c1ccccc1 (centres undefined)", "HOP-18 NSCLC", "> 100 µM"],
  ["COC(=O)C12CC3CC(CC(C(=O)O)(C3)C1)C2", "HOP-18 NSCLC", "> 100 µM"],
  ["Cc1cc(NS(=O)(=O)c2ccc(Nc3c4ccccc4nc4c(C(=O)N5CCN(CCO)CC5)cccc34)cc2)no1", "HOP-18 NSCLC", "> 100 µM"],
  ["O=C1C2C3C=C4c5ccccc5N(c5ccccc5)C4(C2C(=O)N1c1ccc([N+](=O)[O-])cc1)[C@H]1C(=O)N(c2ccc([N+](=O)[O-])cc2)C(=O)[C@@H]31 (some centres undefined)", "HOP-18 NSCLC", "> 100 µM"]
]}

====

Collected TGI values appear next to each entry.
Tested on: NCI-H226 lung
method_notes: NCI tumour cell line growth inhibition, 48 h

{"columns": ["molecule", "value_qualifier", "TGI [µM]"],
 "data": [
  ["CC1=C(/C=C/Cl)CC(Cl)C(C)(Cl)C1 (configuration not stated)", ">", 100],
  ["CCOC(=O)CC(C)C1(C(=O)OCC)CCCCC1=O (configuration not stated)", ">", 100],
  ["c1ccc(Sc2ccc(Cc3nc4cc5ccccc5cc4[nH]3)cc2)cc1", "=", 26.9],
  ["CC(=O)Oc1ccc2cc(-c3ccccc3OC(C)=O)c(=O)oc2c1", "=", 70.7],
  ["CO/C=C(/C(=O)OC)c1ccccc1COc1cccc(C(F)(F)F)c1", "=", 71.2],
  ["O=C(Nc1n[nH]c2cc(-c3ccccc3)ccc12)C1CC1", ">", 25],
  ["Cc1cc(C(=O)Nc2ccc3cc(CN4CCOCC4)ccc3n2)c(C)n1-c1ccccc1", "=", 5.92],
  ["CCOC(C)O[C@H]1C(=O)OCC1(C)C (some centres not stated)", ">", 100],
  ["Nc1ccccc1C#C/C=C\\C#Cc1ccccc1N", "=", 53.8],
  ["Cn1cc(C2(C)CC(C)(C)c3c2n(C)c2ccccc32)c2ccccc21 (configuration not stated)", ">", 100],
  ["N#C/C(=C/NC(N)=S)C(N)=O", ">", 100],
  ["O=C(N/N=C\\C=C\\c1ccc([N+](=O)[O-])o1)C(=O)N/N=C\\C=C\\c1ccc([N+](=O)[O-])o1", ">", 100],
  ["CCCCC1Cc2ccccc2-c2nc3ccccc3n21 (configuration not stated)", "=", 39.5],
  ["COc1ccccc1CNCCCN1C(=O)c2ccc3c4c(ccc(c24)C1=O)C(=O)N(CCCNCCNCCCN)C3=O", "=", 21.3],
  ["CCOC(=O)C(=O)Nc1ccccc1CC", ">", 100],
  ["COc1cc2oc(-c3ccc(O)cc3)c(OC)c(=O)c2c(O)c1OC", ">", 100],
  ["CCN(CC)C1CC(O[C@H]2C[C@](O)(C(=O)CO)Cc3c(O)c4c(c(O)c32)C(=O)c2c(OC)cccc2C4=O)OC(C)C1O (some centres not stated)", "=", 0.044],
  ["Cc1ccc2c3c1O[C@H]1c4[nH]c5ccccc5c4C[C@@]4(O)[C@@H](C2)N(CC2CC2)CC[C@]314", "=", 30.5],
  ["Cc1cc2ncnn2cc1Nc1ncc2c(n1)n(C1CCOCC1)c(=O)n2C", ">", 100],
  ["COc1ccc(C(=O)c2cc(OC)c(OC)c(OC)c2)cc1/C=C/C(=O)c1ccc(F)cc1", "=", 18.1],
  ["COc1c(C)cc2c(c1O)C1C3[C@H]4SC[C@@]5(NCCC6=C5NC5C=CC=CC65)C(=O)OCC(c5c6c(c(C)c(OC(C)=O)c54)OCO6)N3[C@@H](O)C(C2)N1C (some centres not stated)", "=", 0.0859],
  ["Cc1cc(NC(=S)SCc2ccc(F)cc2)c([N+](=O)[O-])cc1C", "=", 38.7]
]}

====

Tested on: TK-10 renal
method_notes: NCI tumour cell line growth inhibition, 48 h
Examples of molecules with documented TGI follow.

{"columns": ["molecule", "target_entity", "TGI"],
 "data": [
  ["Cc1ccc2c3c1O[C@H]1c4[nH]c5ccccc5c4C[C@@]4(O)[C@@H](C2)N(CC2CC2)CC[C@]314", "TK-10 renal", "31.7 µM"],
  ["COC(=O)c1cc2c(cc1CC(Cc1ccc3c(c1)CCCC3)C(=O)OC)CCCC2 (stereo not given)", "TK-10 renal", "> 100 µM"],
  ["CCOc1ncn(-c2ccc(NC(=S)NC3OC(CO)C(O)C(O)C3O)cc2)n1 (stereo not given)", "TK-10 renal", "> 100 µM"],
  ["CCOC(=O)c1cc2c3ccn(Cc4ccccc4)c3c3c(C)[nH]oc3c2n1", "TK-10 renal", "> 100 µM"],
  ["O=C(c1cccs1)N1CCc2ccccc2C1", "TK-10 renal", "> 100 µM"]
]}

====

Below, each entry is listed with its recorded TGI.
Tested on: NCI-H460 lung
method_notes: NCI tumour cell line growth inhibition, 48 h

{"columns": ["molecule", "TGI"],
 "data": [
  ["O=Cc1ccccc1COC(=O)c1cc(C(=O)OCc2ccccc2C=O)c(C(=O)OCc2ccccc2C=O)cc1C(=O)OCc1ccccc1C=O", "> 100 µM"],
  ["C=C1C(=O)O[C@H]2[C@H]1CC/C(COC(=O)NCCCCNC(=O)OC/C1=C/CC[C@@]3(C)O[C@H]3[C@H]3OC(=O)C(=C)[C@@H]3CC1)=C\\CC[C@@]1(C)O[C@@H]21", "18 µM"],
  ["COc1ccc(C(=O)c2cc(OC)c(OC)c(OC)c2)cc1/C=C/C(=O)c1ccc(F)cc1", "52.7 µM"],
  ["COC(=O)c1cc2c(cc1Cl)Sc1nnc(Nc3ccc(C)cc3)n1S2(=O)=O", "25.7 µM"],
  ["CCOC(=O)C1CCN(S(=O)(=O)/N=C2/NC(=O)NC2=C(Cl)Cl)CC1", "11.4 µM"],
  ["O=C(CCc1nc(=S)[nH][nH]1)Nc1ccccc1Cl", "> 100 µM"],
  ["CCNCCNc1cc(-c2ccc(C(F)(F)F)cc2)c(C#N)c2nc3ccccc3n12", "2.73 µM"],
  ["CC1CC2=C(S(=O)(=O)c3ccccc3)CC(S(=O)(=O)c3ccccc3)(S(=O)(=O)c3ccccc3)CC21 (centres undefined)", "> 100 µM"],
  ["O=C(Nc1cc(Cl)c(Cl)cc1Cl)C(=O)C1C(=O)NC(=S)NC1=O", "> 100 µM"],
  ["COC(=O)C12CC3CC(CC(C(=O)O)(C3)C1)C2", "> 100 µM"],
  ["Cc1ccc2c(c1)CC1(Cc3ccccc3C1=O)C2=O (centres undefined)", "> 100 µM"],
  ["CCCCNC1CCCCC[C@H]1O (some centres undefined)", "> 100 µM"],
  ["COc1cc2cc3c4cc(OC)c(OC)cc4cc[n+]3c(C)c2cc1OC (tested in a mixture with another compound)", "> 100 µM"],
  ["CCOC(=O)C1C(=O)CC1(C)C (centres undefined)", "> 10 µM"],
  ["CC(C)=CCC(O)[C@](C)(O)[C@H]1[C@H](O)C[C@@]2(C)[C@@H]3CCc4cc(O)c(OC5OC(CO)C(O)C(O)C5O)cc4C3(C)C(=O)C[C@]12C (some centres undefined)", "> 100 µM"],
  ["N#C/C(=C/NC(N)=S)C(N)=O", "> 100 µM"],
  ["NS(=O)(=O)c1ccc(-c2ccc3c(NC(=O)C4CC4)n[nH]c3c2)cc1", "> 25 µM"],
  ["Cc1ccc(NC(=O)c2cccc(C(C)(C)C#N)c2)cc1Nc1ccc2ncn(C)c(=O)c2c1", "> 100 µM"],
  ["COc1ccc2[nH]c3c4[nH]c5ccc(OC)cc5c4c4c(c3c2c1)C(=O)NC4=O", "> 25 µM"]
]}
